Hey, just so you know, these numbers are from ChEMBL document CHEMBL4480449.

Test system: LNCaP
experiment: Cytotoxicity against human LNCAP cells after 72 hrs by MTT assay
Format: functional, cell-based
conditionInfo: Homo sapiens, LNCaP, 72 h
propertyMeasured: IC50 (µM)
Only the number, expressed in µM, is required.

input: Write down IC50 measured for item CC[C@@]12CC(C(=O)OC)=C3Nc4cc5c(cc4[C@@]34CCN(C[C@H](O)[C@H]1O)[C@@H]24)[C@@H]1[C@H](O5)[C@@H](O)[C@@]2(CC)CC(C(=O)OC)=C3Nc4c(cc(O)c(OC)c4OC)[C@@]34CCN1[C@@H]24
output: 0.3

input: Write down IC50 measured for item CC[C@]12C=CCN3CC[C@]4(C(=C(C(=O)OC)C1)Nc1cc5c(cc14)[C@@H]1[C@H](O5)[C@@H](O)[C@@]4(CC)CC(C(=O)OC)=C5N=C6C(=CC(=O)C(OC)=C6OC)[C@@]56CCN1[C@H]64)[C@@H]32
output: 2.8

input: Write down IC50 measured for item CC[C@@]12CC(C(=O)OC)=C3Nc4cc5c(cc4[C@@]34CCN(C[C@H]3O[C@H]31)[C@@H]24)[C@@H]1[C@H](O5)[C@@H](O)[C@@]2(CC)CC(C(=O)OC)=C3Nc4c(ccc(OC)c4O)[C@@]34CCN1[C@@H]24
output: 9.6
